The following compounds are shown together with reported inhibition at 30 µM values.
study.target: human 11βHSD1 enzyme (Homo sapiens, UniProt P28845)
Construct: baculovirus expressed N terminal 6-His tagged full length human 11βHSD1 enzyme; 6-His (N); made in house
Sequence (P28845 whole entry): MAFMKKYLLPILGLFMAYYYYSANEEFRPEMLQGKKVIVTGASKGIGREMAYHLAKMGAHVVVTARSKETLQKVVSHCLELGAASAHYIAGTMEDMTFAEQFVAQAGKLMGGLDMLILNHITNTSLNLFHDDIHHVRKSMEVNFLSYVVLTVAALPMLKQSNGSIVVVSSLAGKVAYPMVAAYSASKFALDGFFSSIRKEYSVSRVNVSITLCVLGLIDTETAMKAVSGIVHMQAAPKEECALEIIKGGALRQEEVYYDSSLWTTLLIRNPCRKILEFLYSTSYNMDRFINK
experiment.summary: 11βHSD1 cortisone to cortisol conversion, competitive HTRF assay
Assay type: biochemical
condition.parameters: human 11-βHSD; test concentration of 30 μM of compound
Record the value in %, omitting the unit from your answer.

[in] Read the entry `CCCSc1ncc(C(=O)N[C@H]2C3CC4CC2C[C@@](O)(C4)C3)c(N(C)C)n1` and write its reported inhibition at 30 µM.
[out] 98.5

[in] Give reported inhibition at 30 µM value for `O=C(N[C@H]1C2CC3CC1C[C@@](O)(C3)C2)c1cnc(N2CC[S+]([O-])CC2)nc1C1CCCC1`
[out] 93.4

[in] Please list inhibition at 30 µM recorded for the compound CNc1ncc(C(=O)N[C@H]2C3CC4CC2C[C@@](O)(C4)C3)c(C2CCCO2)n1 (some centres unmarked)
[out] 105

---

study.target: human 11βHSD1 enzyme (Homo sapiens)
Construct: baculovirus expressed N terminal 6-His tagged full length human 11βHSD1 enzyme; 6-His (N); made in house
experiment.summary: 11βHSD1 cortisone to cortisol conversion, competitive HTRF assay
Assay type: biochemical
condition.parameters: human 11-βHSD; test concentration of 30 μM of compound
reported.endpoint: inhibition at 30 µM (%)
Response body: numeric value in %, unit text excluded.

[in] Kindly indicate its recorded inhibition at 30 µM. Item: CN(C)c1ncc(C(=O)N[C@H]2C3CC4CC2C[C@@](O)(C4)C3)c(C2CCCC2)n1 [Example 133]
[out] 94

[in] Report measured inhibition at 30 µM; entry is O=C(N[C@H]1C2CC3CC1C[C@@](O)(C3)C2)c1cnc(N2CCC[S+]([O-])CC2)nc1C1CC1 (some centres unmarked) [Example 44]
[out] 98

[in] Specify measured inhibition at 30 µM for CNc1ncc(C(=O)N[C@H]2C3CC4CC2C[C@@](O)(C4)C3)c([C@@H]2CCCO2)n1 [Example 178] .
[out] 95.3

[in] Fill in reported inhibition at 30 µM for this entry: Nc1ncc(C(=O)N[C@H]2C3CC4CC2C[C@@](O)(C4)C3)c(C2CC2)n1 [Example 49]
[out] 99.3

[in] // fetch inhibition at 30 µM given entry O=C(N[C@H]1C2CC3CC1C[C@@](O)(C3)C2)c1cnc(N2CC3CC2CS3)nc1C1CC1 [Example 46]
[out] 104

[in] Specify inhibition at 30 µM for O=C(N[C@H]1C2CC3CC1C[C@@](O)(C3)C2)c1cnc(OC2CCCC2)nc1C1CCC1 [Example 106] and stop.
[out] 101

[in] Using known records, supply inhibition at 30 µM for O=C(N[C@H]1C2CC3CC1C[C@](O)(C3)C2)c1cnc(NC2CCCC2)nc1C1CCCC1 [Example 130]
[out] 96.1

[in] Indicate its recorded inhibition at 30 µM; the compound in question is CN(C)c1ncc(C(=O)N[C@H]2C3CC4CC2C[C@@](O)(C4)C3)c(C2CC2)n1 [Example 61]
[out] 105

[in] Specify reported inhibition at 30 µM for the compound shown: O=C(N[C@H]1C2CC3CC1C[C@@](O)(C3)C2)c1cnc(N2CCSCC2)nc1C1CCCCC1 [Example 196]
[out] 99.8

[in] Specify inhibition at 30 µM for C[C@@H]1CN(c2ncc(C(=O)N[C@H]3C4CC5CC3C[C@@](O)(C5)C4)c(C3CC3)n2)C[C@H](C)N1 [Example 62] and stop.
[out] 99.9

[in] Specify measured inhibition at 30 µM for O=C(N[C@H]1C2CC3CC1C[C@@](O)(C3)C2)c1cnc(N2CCSCC2)nc1C1CC1 [Example 35] .
[out] 106
